// data source = PubChem BioAssay (Tox21)

- assayed target: Muscarinic acetylcholine receptor M1 (Homo sapiens)
- method description: Cholinergic receptor muscarinic 1 (CHRM1) small molecule antagonists, cell-based qHTS assay (AID 1963588); note: nearly all actives have a fitted effect of over 40% in size
- test parameters: CHRM1-CHO antagonist mode, calcium flux fluorescence; series mostly up to 61.5 µM
Results filed as inconclusive are left out. Calls of active or inactive are those of the source. Calls come from the whole dose curve.
Parameter call: string, one of 1.0 = active, 0.0 = inactive

Lookup: Could you kindly confirm the outcome this assay logged for Cc1oc(-c2ccccc2)nc1CCOc1ccc(C[C@H](Nc2ccccc2C(=O)c2ccccc2)C(=O)O)cc1 ?
Found: 0.0

Lookup: Answer briefly: the call reported for CCCCCCCCCCCCCCNCCO in this assay.
Found: 0.0

Lookup: Query: recorded result category for N=c1ccn2c(n1)O[C@H]1[C@H](O)[C@@H](CO)O[C@H]12 in this test
Found: 0.0

Lookup: Assay result, entry CC(C(=O)O)c1ccc2c(c1)Cc1cccnc1O2 (stereo not given) — outcome?
Found: 0.0

Lookup: Recorded test outcome, item CC[C@H](NC(=O)c1cc(F)ccc1NS(=O)(=O)c1cccc2cccnc12)c1ccccc1
Found: 0.0

---
Lookup: // param item: O=S1OCCO1 ; yields the recorded call
Found: 0.0

Lookup: # fetch the recorded call for C=C[C@@H](C)CCC=C(C)C here
Found: 0.0

Lookup: What did the test return for CN(C)CCN(Cc1ccc(Cl)cc1)c1ccccn1 ?
Found: 1.0

Lookup: Hi, do you know how O=c1cccccc1O came out in this test?
Found: 0.0

Lookup: Recorded test call requested for C1CC(COCC2CO2)CCC1COCC1CO1 (stereo not given)
Found: 0.0

Lookup: Called result for CCC(C)COC(=O)CC(C)C (stereo not given)
Found: 0.0

====

- assayed target: D(2) dopamine receptor (Homo sapiens)
- method description: Dopamine D2 receptor (DRD2) small molecule antagonists, cell-based qHTS assay (AID 1963595); note: potency is the fitted concentration of half-maximal effect
- test parameters: HEK293-DRD2 cAMP HTRF antagonist mode; series mostly up to 92.4 µM
Records with an inconclusive call do not appear. The source made the active and inactive calls. Calls follow the shape of the dose curve; as a rule, active = well fitted inhibition curve with a large enough effect in the signal ratio in the repeat runs, with a control signal flat; inconclusive = weak or mixed curves, or effect the other way; inactive = flat fitted curve, though single readings scatter; the % refers to the signal ratio.
Listed below: Potency values for each entry.

Previously resolved entries follow.
Lookup: # returns recorded Potency (system: D(2) dopamine receptor (Homo sapiens)) for CCN1CCN(c2cc(-c3ccc(F)cc3)c3c(n2)CCCCCC3)CC1
Found: 32.6 nM (active)

Lookup: # get_value(readout= Potency, system= D(2) dopamine receptor (Homo sapiens)) for O=C1NCN(c2ccccc2)C12CCN(CCCC(c1ccc(F)cc1)c1ccc(F)cc1)CC2
Found: 33.5 nM (active)

Lookup: Under D(2) dopamine receptor (Homo sapiens): Potency value of CN1CCC(=C2c3ccccc3CCc3sccc32)CC1 ?
Found: 11900 nM (active)

Okay, next one:
Lookup: # returns recorded Potency (system: D(2) dopamine receptor (Homo sapiens)) for OC1(c2ccc(Cl)c(C(F)(F)F)c2)CCN(CCCC(c2ccc(F)cc2)c2ccc(F)cc2)CC1
Found: 119 nM (active)

====

- assayed target: Muscarinic acetylcholine receptor M1 (Homo sapiens) (UniProt P11229)
- Sequence (P11229 whole entry, looked up): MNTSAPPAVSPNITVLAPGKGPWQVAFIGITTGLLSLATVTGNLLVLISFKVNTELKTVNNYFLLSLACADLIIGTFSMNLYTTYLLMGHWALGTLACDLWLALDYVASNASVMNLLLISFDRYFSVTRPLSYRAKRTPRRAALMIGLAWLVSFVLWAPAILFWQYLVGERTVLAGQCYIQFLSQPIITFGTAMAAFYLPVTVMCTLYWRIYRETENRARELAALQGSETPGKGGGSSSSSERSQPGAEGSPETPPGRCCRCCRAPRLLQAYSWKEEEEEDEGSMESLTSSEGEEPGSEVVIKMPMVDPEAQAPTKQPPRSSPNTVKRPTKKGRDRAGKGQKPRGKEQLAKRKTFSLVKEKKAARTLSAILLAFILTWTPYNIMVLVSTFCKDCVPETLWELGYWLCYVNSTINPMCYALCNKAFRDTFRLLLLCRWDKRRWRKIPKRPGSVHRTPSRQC
- method description: Cholinergic receptor muscarinic 1 (CHRM1) small molecule antagonists, cell-based qHTS assay (AID 1963588); note: nearly all actives have a fitted effect of over 40% in size
- test parameters: CHRM1-CHO antagonist mode, calcium flux fluorescence; series mostly up to 61.5 µM
Results filed as inconclusive are left out. Active and inactive are the calls of the source. Calls come from the whole dose curve.
Choose the fitting class; nothing outside T for active, F for inactive is accepted.

The following compounds have reported results that may help.
Lookup: GET /call?item= O=C(/C=C/c1ccccc1)OCCCc1ccccc1 returns the recorded outcome of this test.
Found: F

Lookup: Give the logged outcome of this assay for the following compound: CC(C)COC(=O)c1ccccc1
Found: F

Lookup: Short answer needed: outcome of this test for CCCCCCC(CCCCCCCCCCC(=O)OCC(COC(C)=O)OC(C)=O)OC(C)=O (centres undefined) ?
Found: F

Lookup: Hi, do you know how CCC(C)(CCCC(C)C)OC(C)=O (centres undefined) came out in this test?
Found: F

Lookup: Which outcome was assigned to CC(C)=CCOC(=O)c1ccccc1 in this test?
Found: F

Next:
Lookup: Give the logged outcome of this assay for the following compound: C1=CCC(c2ccccc2)CC1 (centres undefined)
Found: F

Lookup: # fetch the recorded call for Nc1ccc(S(=O)(=O)Nc2ccccn2)cc1 here
Found: F

Lookup: # outcome recorded in this test, key = COCCO
Found: F

Lookup: So what was the verdict on O=C(O)c1cc(O)c2ccccc2c1O in this test?
Found: F

Lookup: Can you look up the reported call for CCCSS/C(CCO)=C(\C)N(C=O)Cc1cnc(C)nc1N for me?
Found: F

Lookup: Which outcome did this test record for the compound OCc1ccccn1 ?
Found: F

Lookup: Please indicate how the test categorized CCOc1ccc([N+](=O)[O-])cc1 .
Found: F

Lookup: Outcome logged for O=S(=O)(c1ccccc1)c1ccc(Cl)cc1 in this assay:
Found: F

Lookup: # fetch the recorded call for C=CCON/C(CCC)=C1\C(=O)CC(C)(C)C(C(=O)OC)=C1O here
Found: F

====

- method description: Nuclear factor erythroid 2-related factor 2/antioxidant responsive element (Nrf2/ARE) small molecule agonists: luciferase reporter gene qHTS assay in human keratinocytes (AID 1919969); note: nearly all actives have a fitted effect of over 35% in size
- test parameters: KeratinoSens HaCaT ARE-luciferase, luminescence, 24 h; series mostly up to 92.4 µM
Inconclusive results are not listed. Activity calls are given as the source filed them. Calls follow the shape of the full dose curve.
Field 'call' accepts y for active, n for inactive

Worked examples follow.
Lookup: Test call, this molecule: CNc1c2c(nn1C)CCCC2
Found: n

Lookup: Write down the call the test reported for this molecule. Item: CN=C(NC#N)Nc1ccc(C2=NNC(=O)CC2C)cc1 (centres undefined)
Found: n

Lookup: What classification did O=C(c1ccccc1)c1cccc(O)c1 end up with in this test?
Found: n

Lookup: Hi, sorry to bother you, what did the test record for Cc1oc(-c2ccccc2)nc1CCC(=O)c1ccc(CC2SC(=O)NC2=O)cc1 (centres undefined) ?
Found: n

Lookup: Tell me the assay call for NC(=O)N1c2ccccc2CC(=O)c2ccccc21 please.
Found: n

Lookup: Hi, sorry to bother you, what did the test record for N#CCC(=O)NN ?
Found: n

Lookup: // outcome(item) with item = C=CCn1c(=O)n(CC=C)c(=O)n(CC=C)c1=O
Found: n

Lookup: Dear all, I need the recorded test outcome for NC(=O)NS(=O)(=O)c1ccc(N)cc1 , thank you.
Found: n

More entries:
Lookup: Which outcome did this test record for the molecule O=C(/C=C/c1ccccc1)OCCCc1ccccc1 ?
Found: n

Lookup: Hi team, can someone confirm the assay call for CC1=C(C)C(=O)C(CCCCC#CCCCC#CCO)=C(C)C1=O ?
Found: y

Lookup: Please indicate how the test categorized COCCC(=O)OC .
Found: y

Lookup: State the result this test recorded for CC1=CC(=O)CC(C)(C)C1=O .
Found: n

====

- method description: Nuclear factor erythroid 2-related factor 2/antioxidant responsive element (Nrf2/ARE) small molecule agonists: qHTS cell viability counter screen in human keratinocytes (AID 1919968); note: nearly all actives have a fitted effect of over 55% in size
- test parameters: KeratinoSens HaCaT ARE cells viability, CellTiter-Fluor, 24 h; series mostly up to 92.4 µM
Inconclusive results are not listed. Activity calls are given as the source filed them. Calls follow the shape of the dose curve; as a rule, active = well fitted cell-killing curve with a large enough effect in the repeat runs; inconclusive = weak or mixed curves, or effect the other way; inactive = flat fitted curve, though single readings scatter.
Please reply with one of these outcomes: active, inactive

Illustrative cases are given below, each with its answer.
Lookup: Each compound tested received a call. Report the one for CCCCC(CC)CN1C(=O)C2C3C=CC(C3)C2C1=O (configuration not stated) .
Found: inactive

Lookup: Hey, what did the test say about CC1=C2[C@H](/C=C(\C)C(=O)O)CC[C@@H](C)[C@H]2CC1 ?
Found: active

Lookup: Just curious, what result did C/C=C(\C)C(=O)OCCc1ccccc1 get here?
Found: inactive

Lookup: How was C[C@H](N)C(=O)N[C@@H](C)C(=O)NC1[C@H]2CN(c3nc4c(cc3F)c(=O)c(C(=O)O)cn4-c3ccc(F)cc3F)C[C@@H]12 (some centres not stated) classified in this test?
Found: inactive

New cases:
Lookup: In this assay, the call recorded for Cc1cc(O)c(C(C)(C)C)cc1Sc1cc(C(C)(C)C)c(O)cc1C was what?
Found: active

Lookup: Call for entry CCN(CC)C(C)CN1c2ccccc2Sc2ccccc21 (configuration not stated) :
Found: inactive

Lookup: Each compound tested received a call. Report the one for CCCCc1ccc(N)cc1 .
Found: inactive

====

- method description: Nuclear factor erythroid 2-related factor 2/antioxidant responsive element (Nrf2/ARE) small molecule agonists: luciferase reporter gene qHTS assay in human keratinocytes (AID 1919969); note: nearly all actives have a fitted effect of over 35% in size
- test parameters: KeratinoSens HaCaT ARE-luciferase, luminescence, 24 h; series mostly up to 92.4 µM
Records with an inconclusive call do not appear. Calls of active or inactive are those of the source. Calls come from the whole dose curve.
Could you please pick one outcome from this set? y for active, n for inactive

Lookup: Identify the outcome logged in this assay for the molecule shown: [Cl][Pt-2]([Cl])([Cl])[Cl]
Found: n

Lookup: # fetch the recorded call for N#Cc1c(F)cccc1F here
Found: n

Lookup: Fill in: this test's call for O=C1CCCN1CCO is ___
Found: n

Lookup: Hey, what did the test say about O=C(O)CCCCCCC(=O)O ?
Found: n

Lookup: # outcome recorded in this test, key = C=CCOc1c(Br)cc(Br)cc1Br
Found: n

Lookup: Tell me the recorded outcome of this test for O=S(=O)(O)c1ccc(Cl)cc1 .
Found: n

Lookup: Fill in: this test's call for CCOC(=O)c1ncn2c1CN(C)C(=O)c1cc(F)ccc1-2 is ___
Found: n

Lookup: Hi, do you know how CCC1(CO)COCOC1 came out in this test?
Found: n

More entries:
Lookup: Tell me the assay call for CO[Si](CCC1CCC2OC2C1)(OC)OC (configuration not stated) please.
Found: n

Lookup: Called result for CNCCC(Oc1ccccc1OC)c1ccccc1 (configuration not stated)
Found: n

Lookup: Please state the recorded outcome for this molecule: Cc1cccc(C)c1NC(=O)c1ccc(N)cc1
Found: n

Lookup: Test call for this molecule, please: CC(Oc1cc(Cl)ccc1Cl)C(=O)O (configuration not stated)
Found: n

Lookup: Assay outcome for CCOc1ccccc1O : what was it?
Found: n

Lookup: // outcome(item) with item = CCO[Si](OCC)(OCC)OCC
Found: n

Lookup: Dear all, I need the recorded test outcome for CCCCCCCC(C)=O , thank you.
Found: n
